Catalogue of polymerase ribozyme fitness (log ratio) readings, one per entry.
B1: TPR t1 (parent)
chain: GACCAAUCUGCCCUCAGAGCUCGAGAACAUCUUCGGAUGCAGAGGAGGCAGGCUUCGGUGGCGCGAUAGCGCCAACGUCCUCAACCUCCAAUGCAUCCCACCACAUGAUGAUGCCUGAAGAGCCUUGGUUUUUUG

# Variants of: B1
# Protocol Text: polymerase ribozyme fitness, log enrichment relative to wild type (log ratio); higher = more active; in vitro selection for triplet polymerase activity

- Variant Key: "C89A A111U G122A"
  polymerase ribozyme fitness (log ratio): -4.54
- Variant Key: "G63A U112A G122C"
  polymerase ribozyme fitness (log ratio): -1.55
- Variant Key: "C85A U116C"
  polymerase ribozyme fitness (log ratio): -2.08
- Variant Key: "G47U U78G"
  polymerase ribozyme fitness (log ratio): -1.6
- Variant Key: "G42U G47C C102A U112G G120U"
  polymerase ribozyme fitness (log ratio): -6.76
- Variant Key: "C12G U112A U133G"
  polymerase ribozyme fitness (log ratio): 1.61
- Variant Key: "C49A C53A C86A U112G G128A"
  polymerase ribozyme fitness (log ratio): -3.85
- Variant Key: "G47U C114U"
  polymerase ribozyme fitness (log ratio): -3.33
- Variant Key: "A6U C123G"
  polymerase ribozyme fitness (log ratio): 1.29
- Variant Key: "A6G G71A"
  polymerase ribozyme fitness (log ratio): -0.397
- Variant Key: "G52A G69U U78A C89U G128U"
  polymerase ribozyme fitness (log ratio): -2.93
